# experimentNotes: physchem
# conditionDescription: aqueous base, pH 11

{"molecule": "COc1ccc(C[C@H]2NC(=O)/C=C/C[C@@H]([C@H](C)[C@H]3O[C@@H]3c3ccccc3)OC(=O)[C@H](CC(C)C)OC(=O)CCNC2=O)cc1Cl [Cryptophycin 21]", "half-life": "15 min"}
{"molecule": "COc1ccc(C[C@H]2NC(=O)/C=C/C[C@@H]([C@H](C)[C@H]3O[C@@H]3c3ccccc3)OC(=O)[C@H](CC(C)C)OC(=O)[C@H](C)CNC2=O)cc1Cl [Cryptophycin 1]", "half-life": "49.8 min"}

---

Listed next: entries and their corresponding IC50.
# Tested on: human tumor cell lines KB and LoVo
# experimentNotes: In vitro cytotoxicity, KB and LoVo
# conditionDescription: read-out: cytotoxicities IC50's

{"compound": "COc1ccc(C[C@H]2NC(=O)/C=C/C[C@@H]([C@H](C)[C@@H](O)[C@@H](Cl)c3ccccc3)OC(=O)[C@H](CC(C)C)OC(=O)[C@H](C)CNC2=O)cc1Cl [Cryptophycin 8]", "testSystem": "human tumor cell lines KB and LoVo", "IC50": "0.009 to 0.019 nM"}
{"compound": "COc1ccc(C[C@H]2NC(=O)/C=C/C[C@@H]([C@H](C)/C=C/c3ccccc3)OC(=O)[C@H](CC(C)C)OC(=O)C(C)(C)CNC2=O)cc1Cl [Cryptophycin 51]", "testSystem": "human tumor cell lines KB and LoVo", "IC50": "3.5 to 5.8 nM"}
{"compound": "COc1ccc(C[C@H]2NC(=O)/C=C/C[C@@H]([C@H](C)[C@H]3O[C@@H]3c3ccccc3)OC(=O)[C@H](CC(C)C)OC(=O)C(C)(C)CNC2=O)cc1Cl [Cryptophycin 52]", "testSystem": "human tumor cell lines KB and LoVo", "IC50": "0.043 to 0.07 nM"}
{"compound": "COc1ccc(C[C@H]2NC(=O)/C=C/C[C@@H]([C@H](C)/C=C/c3ccccc3)OC(=O)[C@H](CC(C)C)OC(=O)[C@H](C)CNC2=O)cc1Cl [Cryptophycin 3]", "testSystem": "human tumor cell lines KB and LoVo", "IC50": "3.5 to 5.8 nM"}
{"compound": "COc1ccc(C[C@H]2NC(=O)/C=C/C[C@@H]([C@H](C)[C@H]3O[C@@H]3c3ccccc3)OC(=O)[C@H](CC(C)C)OC(=O)[C@H](C)CNC2=O)cc1Cl [Cryptophycin 1]", "testSystem": "human tumor cell lines KB and LoVo", "IC50": "0.009 to 0.029 nM"}
{"compound": "COc1ccc(C[C@H]2NC(=O)/C=C/C[C@@H]([C@H](C)[C@@H](O)[C@@H](Cl)c3ccccc3)OC(=O)[C@H](CC(C)C)OC(=O)C(C)(C)CNC2=O)cc1Cl [Cryptophycin 55]", "testSystem": "human tumor cell lines KB and LoVo", "IC50": "0.033 to 0.047 nM"}

Values compiled from patent EP0830136B1.
